tested on: fMLF/CB-induced human neutrophils (superoxide anion generation); test: Superoxide anion generation in fMLF/CB-induced human neutrophils; format: cell-based; settings: Neutrophil; fMLF/CB-induced human neutrophils; mean ± SEM (n ≥ 3); read-out: Superoxide Anion IC50
I'd be grateful if you could share measured IC50 for these entries.
Numbers only, in µM.

Example entries begin here.
{"COMPOUND": "C/C(=C\\CCc1ccoc1)CCC(=O)N[C@H]1CCOC1=O [Compound 5, (−)-sponalisolide B]", "IC50, µM": 5.31}
{"COMPOUND": "O=c1cc(N2CCOCC2)oc2c(-c3ccccc3)cccc12 [LY294002, reference compound]", "IC50, µM": 1.88}

Ask: Indicate its recorded IC50; the compound in question is CC12CCC3C(C)(C1CCc1cocc12)C(O)C1(O)C(=O)OCC31C (stereo not drawn) [Compound 1, 17-dehydroxysponalactone]
Result: 3.37

====

system: fMLF/CB-induced human neutrophils (elastase release); experiment: Elastase release in fMLF/CB-induced human neutrophils; assay type: cell-based; conditions: Neutrophil; fMLF/CB-induced human neutrophils; dash per footnote b; read-out: Elastase IC50 (dash class)
Please provide measured IC50 for the entries that follow.

{"MOLECULE": "CC1=C(O)C(=O)CC2(C)C1CCC1(CO)c3cocc3CCC12 (stereo not drawn) [Compound 6]", "IC50": "> 10 µM"}

Dear colleague, could you send me IC50 for each of the items below? Thanks.
1. CC(=CCCc1ccoc1)CCC=C(C)CCC(O)C1(C)CCC(=O)O1 (stereo not drawn) [Compound 4, 16-epi-irciformonin G]
2. C/C(=C\CCc1ccoc1)CCC(=O)O [Compound 2]

Result:
> 10 µM
> 10 µM

Hi, could you look up IC50 for each item in my list?
1. C/C(=C\CC(=O)NO)CCCc1ccoc1 [Compound 3, spongiafuranohydroxamic acid A]
2. CC(C)CCC[C@@H](C)[C@H]1CC[C@H]2C3=CC(=O)[C@@]4(O)C[C@@H](O)CC[C@]4(C)[C@H]3CC[C@]12C [Compound 7, cholesta-7-ene-3β,5α-diol-6-one]
3. C/C(=C\CCc1ccoc1)CCC(=O)N[C@H]1CCOC1=O [Compound 5, (−)-sponalisolide B]

Result:
1. > 10 µM
2. > 10 µM
3. > 10 µM
